Biological target: UniProtKB Q9NR96
Sequence (Q9NR96 26-1032): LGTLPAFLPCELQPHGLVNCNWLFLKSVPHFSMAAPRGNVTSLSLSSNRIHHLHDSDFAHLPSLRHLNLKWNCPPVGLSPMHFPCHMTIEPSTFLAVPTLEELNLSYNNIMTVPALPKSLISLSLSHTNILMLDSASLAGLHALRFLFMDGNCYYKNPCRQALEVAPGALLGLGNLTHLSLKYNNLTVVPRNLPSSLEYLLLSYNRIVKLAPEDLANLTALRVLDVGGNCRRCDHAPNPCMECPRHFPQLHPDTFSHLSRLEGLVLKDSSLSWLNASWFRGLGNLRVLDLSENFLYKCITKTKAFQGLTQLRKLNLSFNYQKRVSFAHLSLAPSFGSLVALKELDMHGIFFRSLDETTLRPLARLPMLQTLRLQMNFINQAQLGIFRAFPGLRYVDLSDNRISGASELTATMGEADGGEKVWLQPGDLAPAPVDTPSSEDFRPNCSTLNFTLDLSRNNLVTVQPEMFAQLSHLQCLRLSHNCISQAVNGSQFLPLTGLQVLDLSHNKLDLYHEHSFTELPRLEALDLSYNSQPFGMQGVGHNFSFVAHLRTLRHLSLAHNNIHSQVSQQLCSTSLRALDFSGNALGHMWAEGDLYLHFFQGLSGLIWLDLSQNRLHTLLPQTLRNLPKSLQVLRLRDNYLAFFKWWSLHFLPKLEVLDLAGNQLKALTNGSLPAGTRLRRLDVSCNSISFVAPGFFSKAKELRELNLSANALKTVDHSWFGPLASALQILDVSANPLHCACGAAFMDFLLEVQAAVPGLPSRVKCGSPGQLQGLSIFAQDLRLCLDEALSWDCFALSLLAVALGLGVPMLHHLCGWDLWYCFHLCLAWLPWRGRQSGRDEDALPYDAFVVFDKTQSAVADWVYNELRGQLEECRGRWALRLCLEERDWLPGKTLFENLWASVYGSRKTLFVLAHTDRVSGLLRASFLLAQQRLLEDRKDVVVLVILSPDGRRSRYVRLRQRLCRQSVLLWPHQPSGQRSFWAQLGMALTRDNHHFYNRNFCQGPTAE
Assay: TLR9 inhibition reporter assay (HEK-Blue cells, SEAP reporter, ODN2006 stimulation)
Conditions: HEK-Blue cells overexpressing human TLR9, SEAP reporter, ODN2006 5 nM
Experimental endpoint: pIC50
Reminder that pIC50 is minus the log10 of a molar concentration.

I'd like to know its pIC50. The molecule in question is "Cc1cc(-c2[nH]nc(C(=O)N[C@@H]3CCNC3)c2C(C)C)cn2ncnc12"
4.76

# query: pIC50 of entry "Cc1cc(-c2[nH]nc(C(=O)N3CCN(c4ccncc4)CC3)c2C(C)C)cn2ncnc12"
5.42

Need pIC50 of "Cc1ncc(CN[C@H]2CC[C@H](NC(=O)c3n[nH]c(-c4cc(C)c5ncnn5c4)c3C(C)C)CC2)cn1" , thanks.
5.25

Record request: pIC50 value, item "Cc1cc(-c2[nH]nc(-c3ncc(C4CCNCC4)cn3)c2C(C)C)cn2ncnc12"
4.78

Field request: pIC50 | item: "Cc1cc(-c2[nH]nc(C(=O)N[C@@H]3CCCNC3)c2C(C)C)cn2ncnc12"
4.75

Endpoint output: pIC50 of "Cc1cc(-c2[nH]nc(-c3nc4c(s3)CN(C(=O)C[C@H](C)O)CC4)c2C(C)C)cn2ncnc12" . Value?
5.20

What value of measured pIC50 is listed for "CNC(=O)c1n[nH]c(-c2cc(C)c3ncnn3c2)c1C(C)C" ?
6.41

Requested field: pIC50. Item: "CNC(=O)CN1CCc2cc(-c3n[nH]c(-c4cc(C)c5ncnn5c4)c3C(C)C)ccc2C1"
5.26

---

Target: human TLR8 (Homo sapiens, UniProt Q9NR97)
Sequence (Q9NR97 27-1041): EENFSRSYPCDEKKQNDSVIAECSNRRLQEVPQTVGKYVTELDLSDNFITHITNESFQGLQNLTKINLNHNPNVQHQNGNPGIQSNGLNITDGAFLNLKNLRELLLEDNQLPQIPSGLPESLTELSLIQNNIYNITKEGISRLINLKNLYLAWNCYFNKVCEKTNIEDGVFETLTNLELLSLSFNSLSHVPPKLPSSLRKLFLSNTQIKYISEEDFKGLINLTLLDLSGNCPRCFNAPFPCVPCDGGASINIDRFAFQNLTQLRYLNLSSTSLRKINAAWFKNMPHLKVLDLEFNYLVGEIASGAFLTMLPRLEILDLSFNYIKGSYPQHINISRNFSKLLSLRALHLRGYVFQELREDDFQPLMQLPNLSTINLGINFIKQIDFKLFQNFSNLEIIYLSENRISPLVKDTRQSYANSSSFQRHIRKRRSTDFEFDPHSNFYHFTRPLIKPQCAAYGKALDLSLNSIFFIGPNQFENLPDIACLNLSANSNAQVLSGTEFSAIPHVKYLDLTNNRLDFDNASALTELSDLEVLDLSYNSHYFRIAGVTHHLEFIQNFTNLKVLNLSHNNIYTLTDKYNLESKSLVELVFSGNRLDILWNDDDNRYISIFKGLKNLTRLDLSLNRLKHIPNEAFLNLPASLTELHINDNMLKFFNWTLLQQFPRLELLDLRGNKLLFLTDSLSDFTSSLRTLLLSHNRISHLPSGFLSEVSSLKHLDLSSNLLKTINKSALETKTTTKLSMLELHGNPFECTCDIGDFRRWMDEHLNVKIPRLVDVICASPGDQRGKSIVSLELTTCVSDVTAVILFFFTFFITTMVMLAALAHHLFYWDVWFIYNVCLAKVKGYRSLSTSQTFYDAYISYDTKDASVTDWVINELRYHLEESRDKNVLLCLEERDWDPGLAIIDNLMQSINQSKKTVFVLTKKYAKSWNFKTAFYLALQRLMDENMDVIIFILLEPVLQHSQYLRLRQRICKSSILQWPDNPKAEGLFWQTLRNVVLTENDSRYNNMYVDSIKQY
Experiment: TLR8 inhibition reporter assay (HEK-Blue cells, SEAP reporter, R848 stimulation)
Settings: HEK-Blue cells overexpressing human TLR8, SEAP reporter, R848 15.9 μM
Text: TLR7/8/9 Inhibition Reporter Assays HEK-Blue™-cells (Invivogen) overexpressing human TLR7, TLR8 or TLR9 receptors were used for screening inhibitors of these receptors using an inducible SEAP (secreted embryonic alkaline phosphatase) reporter gene under the control of the IFN-β minimal promoter fused to five NF-κB and AP-1-binding sites. […]
Experimental endpoint: pIC50
Quick note: pIC50 means taking -log10 of the concentration in moles per liter.

For the compound shown here, "Cc1cc(-c2[nH]nc(C(=O)N[C@H]3CC[C@H](N(CCC(C)C)CCC(C)C)CC3)c2C(C)C)cn2ncnc12" , give the reported pIC50.
8.35

Fill in: pIC50 of "Cc1cc(-c2[nH]nc(C(=O)N(C)C)c2C(C)C)cn2ncnc12" is ___
8.52

// returns reported pIC50 for input "Cc1cc(-c2[nH]nc(-c3ccc4c(c3)CCN(C3COC3)C4)c2C(C)C)cn2ncnc12"
8.35

Record request: pIC50 value, item "Cc1cc(-c2[nH]nc(C(=O)N[C@H]3CC[C@@H](NCCCC(F)(F)F)CC3)c2C(C)C)cn2ncnc12"
8.74
